- TARGET OF ASSAY: Canine_OSMR_hlgG1_Fc (canine)
- Sequence (chain, as listed by the source limits assumed, form in doubt): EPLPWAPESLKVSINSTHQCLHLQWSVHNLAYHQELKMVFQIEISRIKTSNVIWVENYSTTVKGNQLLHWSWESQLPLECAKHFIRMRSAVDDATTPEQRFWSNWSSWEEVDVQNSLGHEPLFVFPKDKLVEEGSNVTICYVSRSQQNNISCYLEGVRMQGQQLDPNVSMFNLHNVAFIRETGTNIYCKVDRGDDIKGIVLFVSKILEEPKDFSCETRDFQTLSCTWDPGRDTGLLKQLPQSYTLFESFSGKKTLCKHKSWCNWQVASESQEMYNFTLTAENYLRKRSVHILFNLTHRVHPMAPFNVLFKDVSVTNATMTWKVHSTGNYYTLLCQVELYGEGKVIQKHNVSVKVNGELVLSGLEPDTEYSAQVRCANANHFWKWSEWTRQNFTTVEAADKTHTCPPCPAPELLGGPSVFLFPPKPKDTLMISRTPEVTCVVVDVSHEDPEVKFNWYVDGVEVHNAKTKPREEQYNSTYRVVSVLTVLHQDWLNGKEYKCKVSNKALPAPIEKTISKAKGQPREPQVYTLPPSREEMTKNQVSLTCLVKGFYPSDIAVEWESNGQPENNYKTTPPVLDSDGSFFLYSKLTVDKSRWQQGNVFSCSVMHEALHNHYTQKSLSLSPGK
- PROCEDURE TEXT: SPR Biacore, OSMR on chip
OBSERVED PROPERTY: koff
Form field: result (number plus unit)

// field: koff; key: mouse: canine 02D09 chimera (antibody, V domains shown) VH: EVQLVESGGGLVKPGGSLTLSCAASGFTFSDYGMHWLRQAPEKGLEWVAYISSGSRAVFFADTVKGRFTISRDNAKNTLFLQMTSLRSDDTAMYYCARDRYDGRGFAYWGQGTLVTVSA VL: DIVLTQSPATLSVTPGDSVSLSCRASQSISNNLHWYQQTSHESPRLLITYASQSISGIPSRFSGSGSGTDFTLSINSVETEDFGMYFCQQSNSWPLTFGAGTKLELKR ; value = 0.00328 s⁻¹
